test: NCI Yeast Anticancer Drug Screen. Data for the mec2-1 strain (AID 157); settings: S. cerevisiae mec2-1 strain, at 50.0 µM, hits give high values
The panel holds about 79,000 compounds, 15% with a hit somewhere; the sample as a whole holds those more often.
experimentalReadout: growth inhibition (%)

molecule=O=C1C=CC(=O)N1Cc1ccco1 experimentalreadout="growth inhibition" experimentalresult=-16.8
molecule=Nc1cc(=O)n(Cc2ccco2)c(=S)[nH]1 experimentalreadout="growth inhibition" experimentalresult=-16.6
molecule=c1ccc(-c2cc(-c3ccncc3)cc(-c3ccncc3)n2)cc1 experimentalreadout="growth inhibition" experimentalresult=-21
molecule=CCCCCCC/C=N/Nc1ccc([N+](=O)[O-])cc1[N+](=O)[O-] experimentalreadout="growth inhibition" experimentalresult=-16.1
molecule="CC(=O)OCCCC(C)Nc1ccnc2cc(Cl)ccc12 (configuration not stated)" experimentalreadout="growth inhibition" experimentalresult=-8.95
molecule=O=C(CCBr)NC(=O)OC/C=C\c1ccccc1 experimentalreadout="growth inhibition" experimentalresult=34.8
molecule="CC(=O)c1cc(CC2Cc3cc4c(cc3C2=O)CCC4)cc2c1CCC2 (configuration not stated)" experimentalreadout="growth inhibition" experimentalresult=-36.1
molecule=CN(C)c1cc(N(C)C)c2cc(C#N)ccc2n1 experimentalreadout="growth inhibition" experimentalresult=3.05
molecule=Cc1cc(C)cc(Sc2c([N+](=O)[O-])ncn2C)c1 experimentalreadout="growth inhibition" experimentalresult=19.3
molecule="COC(=O)c1c2c(cc3c1CC1(Cc4cc5c(c(C=O)c4C1)CCC5)C3)CCC2 (configuration not stated)" experimentalreadout="growth inhibition" experimentalresult=-23.4
molecule=CCn1c2ccc(N(C)C)cc2c2cc(N(C)C)ccc21 experimentalreadout="growth inhibition" experimentalresult=-38.5
molecule=Brc1ccc(Nc2ccc(Br)cc2Br)c(Br)c1 experimentalreadout="growth inhibition" experimentalresult=23.1
molecule=CC(=O)Nc1ccc(Br)cc1 experimentalreadout="growth inhibition" experimentalresult=-5.6
molecule=CCN(CC)CCOC(=O)Cc1ccc2c(=O)cc(-c3ccc(C)cc3)oc2c1 experimentalreadout="growth inhibition" experimentalresult=-18.4
molecule=CCN(CC)C(=S)SCCO experimentalreadout="growth inhibition" experimentalresult=-11.2
molecule="CC(=O)OCC(C)Cc1ccccc1 (configuration not stated)" experimentalreadout="growth inhibition" experimentalresult=13.8
molecule=NNC(=O)CC(=O)N(C(=O)/C=C/c1ccccc1)c1ccc(Cl)cc1 experimentalreadout="growth inhibition" experimentalresult=-16.9
molecule=CC(=O)Oc1ccc(C(c2ccc(OC(C)=O)cc2)c2ccccn2)cc1 experimentalreadout="growth inhibition" experimentalresult=-0.6
molecule="CC(=O)NC(Cc1ccc(F)cc1)C(=O)O (configuration not stated)" experimentalreadout="growth inhibition" experimentalresult=-7.85
molecule="CC(N)CCC(=O)O (configuration not stated)" experimentalreadout="growth inhibition" experimentalresult=-27.4
molecule=CC(C)(C)CC(=O)Nc1ccccc1 experimentalreadout="growth inhibition" experimentalresult=-4.15
molecule="N=C(N)C(N=Nc1ccccc1)C(=N)N (configuration not stated)" experimentalreadout="growth inhibition" experimentalresult=-7.45
molecule=CCCCCCCCCCCCCCCCCCNC(=O)NCc1ccncc1 experimentalreadout="growth inhibition" experimentalresult=1.8
molecule="CCOC(=O)C1CC(O)c2ccc(Cl)cc2N1 (configuration not stated)" experimentalreadout="growth inhibition" experimentalresult=10.2
molecule=CN1CCCN(C(=O)N(c2ccccc2)c2ccccc2)CC1 experimentalreadout="growth inhibition" experimentalresult=-12.8
molecule="CC1=CC(NCCC(=O)O)NC(=O)N1 (configuration not stated)" experimentalreadout="growth inhibition" experimentalresult=-6.2
molecule="O=C(COc1ccccc1Cl)N1N=C(c2ccccc2)CC1(O)c1ccccc1 (configuration not stated)" experimentalreadout="growth inhibition" experimentalresult=10.1
